- protocol-summary: Partition coefficient octanol/buffer
- Type: physicochemical
- experimental-setup: octanol/buffer, pH 9, octanol/buffer pH = 9.0; read-out: logP
Where a name gives a salt, the structure may show the parent alone.
recorded-metric: logD
Respond using a number only.

logD measured on CNCCc1ccccn1 [BETAHISTINE FUMARATE, Betahistine Fumarate] = 0.904

* * *

- protocol-summary: Bioavailability test on rats
- experimental-setup: rat, in vivo
Where a name gives a salt, the structure may show the parent alone.
recorded-metric: AUC (ng·h/mL)
Give a bare numeral; the unit ng·h/mL is implied.

AUC measured on CNCCc1ccccn1 [BETAHISTINE DIHYDROCHLORIDE, betahistine dihydrochloride, reference compound] = 7600
